Every entry's value here was drawn from ChEMBL document CHEMBL1126204.

System: L1210
Experiment: Concentration required to inhibit the proliferation of L1210 murine leukemia cell line by 50% in presence of exogenous nucleoside dCyd (500 ug/mL).
Type: functional, cell-based
Conditions: Mus musculus
property name: pIC50
Numbers only, as −log10 of the molar value.

C=C1C(n2ccc(N)nc2=O)O[C@H](CO)[C@@H]1O (stereo partly specified) yielded pIC50 of 3.32

====

System: L1210
Assay: Concentration required to inhibit the proliferation of L1210 murine leukemia cell line by 50% in presence exogenous necleoside Guo (50 uM).
Type: functional, cell-based
Settings: Mus musculus
property name: IC50 (µM)
Give bare numbers, in µM.

C=C1[C@H](n2cnc3c(N)nc(N)nc32)O[C@H](CO)[C@H]1O : 44

GET /value?item= C=C1[C@H](n2cnc3c(O)nc(N)nc32)O[C@H](CO)[C@H]1O &field=IC50 returns 51

====

Assay: Concentration required to inhibit the proliferation of human T-lymphocyte CEM/dCK-(dCyd kinase deficient) cells by 50%
Assay type: functional
pIC50: −log10 of the molar value.
property name: pIC50

# map each molecule to its pIC50
1. C=C1[C@H](n2cnc3c(O)nc(N)nc32)O[C@H](CO)[C@H]1O
2. C=C1[C@@H](O)[C@H](n2cnc3c(O)nc(N)nc32)O[C@@H]1CO
3. C=C1[C@@H](O)[C@H](n2cnc3c(N)nc(N)nc32)O[C@@H]1CO

[3.66, "< 3.30", "< 3.30"]

====

System: L1210
Experiment: Concentration required to inhibit the proliferation of L1210 murine leukemia cell line by 50% in presence exogenous necleoside Ado (100 uM).
Format: functional, cell-based
Conditions: Mus musculus, in the assay text read “1000 uM” for “100 uM”
property name: IC50 (µM)
Give bare numbers, in µM.

C=C1[C@H](n2cnc3c(O)nc(N)nc32)O[C@H](CO)[C@H]1O : 55

Turning now to a further compound:
For C=C1[C@H](n2cnc3c(N)nc(N)nc32)O[C@H](CO)[C@H]1O on L1210, measured IC50 was 48

====

Test: Concentration required to inhibit the proliferation of human T-lymphocyte CEM cells by 50% in presence exogenous necleoside Ado+dCyd (100 uM).
Assay type: functional, cell-based
Settings: CCRF-CEM, in the assay text read “1000 uM” for “100 uM”
Assign pIC50 to each entry below.
Give bare numbers, as −log10 of the molar value.

C=C1[C@H](n2cnc3c(O)nc(N)nc32)O[C@H](CO)[C@H]1O : 3.87

Consider the record given below.
Consider C=C1[C@H](n2cnc3c(N)nc(N)nc32)O[C@H](CO)[C@H]1O . Its measured pIC50 is 4.02
